# Lookup of reported TGI keyed by entry
tested on: MALME-3M melanoma; assay: NCI tumour cell line growth inhibition, 48 h
Number only, in µM; omit the unit.

c1ccc(CSCCNCCN(CCNCCSCc2ccccc2)CCNCCSCc2ccccc2)cc1
3.41
OC1c2c(ccc3c2CCC3)CC12Cc1ccccc1C2 (stereo not given)
25.2
COc1cc2c(cc1OC)[C@@H]1C(=O)c3cc4c(cc3[C@@H]1N(CCN(C)C)C2=O)OCO4
3.66

Shifting focus to the compound that follows.
Request: Give TGI for the following compound: COc1ccc([As]=[As]c2ccc(OC)c(NCS(=O)(=O)O)c2)cc1NCS(=O)(=O)O (stereo not given)
Result: 3.34

The reported measurements were obtained from PubChem BioAssay (NCI).
